- assayed target: HTRA2, O43464
- Sequence (O43464 355-458): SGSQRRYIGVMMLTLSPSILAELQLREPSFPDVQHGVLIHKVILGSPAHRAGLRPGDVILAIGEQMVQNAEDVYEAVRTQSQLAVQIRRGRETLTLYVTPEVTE
- assay details: holdup assay
- Parameters: key: below the threshold = too weak to quantify, mostly under pKd 3.1 to 4
- measurement conditions: plain residues with an end cap or a label only (N-terminal biotin on a linker: ahx)

binder: PKMKLNETSF [SHKBP1, Q8TBC3]
pKd: below the threshold
--
binder: YNSFLSVTTV [PDZRN3, Q9UPQ7]
pKd: 3.48
--
binder: KDECVIATEV [DLL1, O00548]
pKd: below the threshold
--
binder: KEYDDELTFF [USH1C, Q9Y6N9]
pKd: below the threshold
